system: SH-SY5Y; assay: Antiproliferative activity against human SH-SY5Y cells at 50 ug/mL after 24 hrs; type: functional
Binning rule for recorded inhibition at 50 µg/mL: A (below 50%), B (50% to below 80%), C (80% or more)

1) Cc1cc2c(c(=O)o1)C=C1C(C[C@H]3C[C@@H]1C3(C)C)O2 (some centres not stated)    C
2) Cc1cc2c(c(=O)o1)C=C(C(C)C)C(CC(C)C)O2 (configuration not stated)    C
3) CC1=Cc2c(cc(C)oc2=O)OC1c1ccco1 (configuration not stated)    B
4) CC1=Cc2c(cc(C)oc2=O)OC1C (configuration not stated)    B
5) CC(C)=CCCC1(C)C=Cc2c(cc(C)oc2=O)O1 (configuration not stated)    A
6) Cc1cc2c(c(=O)o1)C=C1C(C)(C)CCCC1(C)O2 (configuration not stated)    B
7) CCC1C=Cc2c(cc(C)oc2=O)O1 (configuration not stated)    A
8) Cc1cc2c(c(=O)o1)C=C1CCCCC1(C)O2 (configuration not stated)    B

Bin this entry: Cc1cc2c(c(=O)o1)C=C1C(C)(C)CC=CC1(C)O2 (configuration not stated)
C

Bin this entry: CCCCCCCCC1C=Cc2c(cc(C)oc2=O)O1 (configuration not stated)
C
